target: b-Raf(V600E) (Homo sapiens, UniProt P15056, V600E); construct: made in house; assay: Raf/Mek Amplified Luminescence Proximity Homogeneous Assay (Alpha Screen), b-Raf(V600E); type: biochemical; conditions: mutant b-Raf(V600E), read-out: mut-b-RAF (IC50 in uM)
Sequence (P15056 whole entry V600E): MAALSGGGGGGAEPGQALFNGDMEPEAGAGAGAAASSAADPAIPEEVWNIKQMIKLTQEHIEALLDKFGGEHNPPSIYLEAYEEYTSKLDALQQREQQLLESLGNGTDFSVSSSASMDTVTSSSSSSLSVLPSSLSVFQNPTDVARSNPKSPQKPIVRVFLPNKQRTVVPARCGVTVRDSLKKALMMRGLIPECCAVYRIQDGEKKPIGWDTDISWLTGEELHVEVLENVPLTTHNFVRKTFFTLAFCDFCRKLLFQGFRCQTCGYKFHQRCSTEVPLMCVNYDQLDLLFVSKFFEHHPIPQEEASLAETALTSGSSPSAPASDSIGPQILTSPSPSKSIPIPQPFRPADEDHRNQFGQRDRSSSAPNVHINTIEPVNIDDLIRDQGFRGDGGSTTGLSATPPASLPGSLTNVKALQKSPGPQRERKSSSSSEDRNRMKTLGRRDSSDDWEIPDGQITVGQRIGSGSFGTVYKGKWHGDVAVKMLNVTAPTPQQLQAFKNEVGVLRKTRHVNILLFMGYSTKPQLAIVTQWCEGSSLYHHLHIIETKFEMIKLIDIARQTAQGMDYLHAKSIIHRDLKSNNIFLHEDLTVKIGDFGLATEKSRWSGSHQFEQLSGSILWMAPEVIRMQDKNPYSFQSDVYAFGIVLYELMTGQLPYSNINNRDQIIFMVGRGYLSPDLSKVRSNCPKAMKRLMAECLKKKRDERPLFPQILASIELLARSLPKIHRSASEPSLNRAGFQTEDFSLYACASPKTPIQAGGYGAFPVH
testReadout: IC50 (µM)

>>> valuereported("COc1cc(-c2[nH]c(-c3ccc(F)cc3)nc2-c2ccnc(N[C@H]3CCN(S(C)(=O)=O)C3)n2)cnc1N [Compound 200]")
0.004
>>> valuereported("COc1cc(-c2[nH]c(-c3ccc(S(N)(=O)=O)cc3)nc2-c2ccncc2)cnc1N [Compound 121]")
0.0017

A: c1ccc(-c2nc(-c3ccncc3)c(-c3cnc4[nH]cnc4c3)[nH]2)cc1 [Compound 53]
B: COc1cc(-c2[nH]c(-c3ccc(F)c(C=O)c3)nc2-c2ccncc2)cnc1N [Compound 148]
In the pair A and B , the larger recorded IC50 belongs to which? Identify your pick by its label. A

* * *

target: b-Raf(V600E) (Homo sapiens, UniProt P15056, V600E); construct: made in house; experiment: Raf/Mek Amplified Luminescence Proximity Homogeneous Assay (Alpha Screen), b-Raf(V600E); assay type: biochemical; details: mutant b-Raf(V600E), read-out: mut-b-RAF (IC50 in uM)
testReadout: IC50 (µM)

I: COc1cc(-c2nc(C(C)(C)C)[nH]c2-c2ccnc(N)n2)cnc1N [Compound 201]
II: N#Cc1cc(-c2[nH]c(-c3ccccc3)nc2-c2ccncc2)cnc1N [Compound 87]
III: COc1cc(-c2nc(-c3ccccc3)[nH]c2-c2ccnc(N(C)C)n2)cnc1N [Compound 63]
IV: Fc1ccc(-c2nc(-c3ccncc3)c(-c3cnc4[nH]ccc4c3)[nH]2)cc1 [Compound 144]
Sort the items above by IC50, starting with the smallest value. Answer with the labels in sequence, matching the requested order. I, IV, II, III

P: COc1cc(-c2nc(-c3ccccc3)[nH]c2-c2ccnc(NCCO)n2)cnc1N [Example 3]
Q: CNc1ncc(-c2[nH]c(-c3ccccc3)nc2-c2ccncc2)cc1OC [Compound 43]
Identify the item whose IC50 is the smaller number: P or Q Identify your pick by its label. P

1: COc1cc(-c2nc(C(C)(C)C)[nH]c2-c2ccnc(NC[C@H](C)NC(=O)[C@@H](C)OC)n2)cnc1N [Compound 225]
2: COCC(=O)N[C@@H](C)CNc1nccc(-c2[nH]c(-c3ccc(F)cc3)nc2-c2cnc(N)c(OC)c2)n1 [Compound 163]
In the pair 1 and 2 , the larger recorded IC50 belongs to which? Identify your pick by its label. 1
(1: 0.0013 µM, 2: 0.0001 µM)

* * *

target: b-Raf(V600E) (Homo sapiens, UniProt P15056, V600E); construct: made in house; assay: Raf/Mek Amplified Luminescence Proximity Homogeneous Assay (Alpha Screen), b-Raf(V600E); type: biochemical; conditions: mutant b-Raf(V600E), read-out: mut-b-RAF (IC50 in uM)
testReadout: IC50 (µM)

a: Fc1ccc(-c2nc(-c3ccncc3)c(-c3cnc4c(c3)OCCN4)[nH]2)cc1 [Compound 142]
b: COc1cc(-c2[nH]c(-c3ccc(F)cc3)nc2-c2ccoc2)cnc1N [Compound 134]
c: COc1cc(Nc2nccc(-c3[nH]c(C(C)(C)C)nc3-c3cnc(N)c(OC)c3)n2)ccn1 [Compound 230]
d: COCC(=O)N1CCC[C@@H](Nc2nccc(-c3nc(-c4ccc(C(F)(F)F)cc4)[nH]c3-c3cnc(N)c(OC)c3)n2)C1 [Compound 97]
Sort the items above by IC50, starting with the smallest value. Answer with the labels in sequence, matching the requested order. c, b, d, a
(c: 0.0001 µM, b: 0.0014 µM, d: 0.031 µM, a: 0.382 µM)

* * *

Molecular target: b-Raf(V600E) (Homo sapiens, UniProt P15056, V600E)
Construct: made in house
Experiment: Raf/Mek Amplified Luminescence Proximity Homogeneous Assay (Alpha Screen), b-Raf(V600E)
Assay type: biochemical
Settings: mutant b-Raf(V600E), read-out: mut-b-RAF (IC50 in uM)
Protocol: Assay buffer: 50 mM Tris, pH 7.5, 15 mM MgCl2, 0.01% BSA, 1 mM DTT Stop buffer: 60 mM EDTA, 0.01% Tween20 Bead buffer: 50 mM Tris, pH 7.5, 0.01% Tween20 […] The Raf kinase activity reaction was started by the addition of 10 μl per well of 2×ATP diluted in assay buffer. […] A lid was placed on top of the plate and incubated for 1 hour at room temperature, then the luminescence was read on a PerkinElmer Envision instrument. […]
testReadout: IC50 (µM)

P: COC(=O)c1ccc(-c2nc(-c3ccncc3)c(-c3cnc(N)c(OC)c3)[nH]2)cc1 [Compound 103]
Q: COc1cc(-c2[nH]c(-c3ccc(F)cc3)nc2-c2ccnc(N[C@@H]3CCN(C(C)=O)C3)n2)cnc1N [Compound 193]
R: COc1cc(-c2[nH]c(-c3ccc(F)cc3)nc2-c2ccnc(N[C@@H]3CCN(S(C)(=O)=O)C3)n2)cnc1N [Compound 199]
S: Nc1n[nH]c2ccc(-c3[nH]c(-c4ccccc4)nc3-c3ccncc3)cc12 [Compound 26]
T: COC(=O)N[C@@H](C)CNc1nccc(-c2[nH]c(C(C)(C)C)nc2-c2cnc(N)c(OC)n2)n1 [Example 8]
Sort the items above by IC50, starting with the smallest value. Answer with the labels in sequence, matching the requested order. T, P, R, Q, S

P: COCC(=O)N[C@@H](C)CNc1nccc(-c2[nH]c(C(C)C)nc2-c2cnc(N)c(OC)n2)n1 [Compound 227]
Q: COCC(=O)NCCNc1nccc(-c2nc(-c3ccc(F)cc3)[nH]c2-c2cnc(N)c(OC)c2)n1 [Compound 81]
Identify the item whose IC50 is the smaller number: P or Q Identify your pick by its label. Q
(Q: 0.0001 µM, P: 0.0003 µM)

a: COCC(=O)N[C@H](C)CNc1nccc(-c2[nH]c(-c3ccc(F)cc3)nc2-c2cnc(N)c(OC)n2)n1 [Compound 249]
b: COCC(=O)NC[C@H](C)Nc1nccc(-c2nc(C(C)(C)C)[nH]c2-c2cnc(N)c(OC)c2)n1 [Compound 204]
c: COCCNc1nccc(-c2nc(-c3ccc(F)cc3)[nH]c2-c2cnc(N)c(OC)c2)n1 [Compound 161]
d: COc1cc(-c2nc(C(C)(C)C)[nH]c2-c2ccnc(NCC(F)(F)F)n2)cnc1N [Compound 213]
Reorder the items by IC50, least to greatest. Answer with the labels in sequence, matching the requested order. d, b, c, a

I: COc1cc(Nc2nccc(-c3[nH]c(C)nc3-c3cnc(N)c(OC)n3)n2)ccn1 [Compound 245]
II: COc1cc(-c2[nH]c(-c3ccc(C(F)(F)F)cc3)nc2-c2ccncc2)cnc1N [Example 2]
III: COc1nc(-c2sc(-c3ccccc3)nc2-c2ccncc2)cnc1N [Compound 77]
IV: COCC(=O)N[C@@H](C)CNc1nccc(-c2[nH]c(-c3ccc(C(F)(F)F)cc3F)nc2-c2cnc(N)c(OC)c2)n1 [Compound 216]
Reorder the items by IC50, least to greatest. Answer with the labels in sequence, matching the requested order. IV, II, I, III

a: COc1nc(-c2nc(C(C)(C)C)[nH]c2-c2ccnc(NC[C@H](C)NC(=O)OCC(C)C)n2)cnc1N [Compound 239]
b: Fc1ccc(-c2nc(-c3ccncc3)c(-c3ccc4nccn4c3)[nH]2)cc1 [Compound 141]
c: COc1cc(-c2nc(-c3ccccc3)[nH]c2-c2ccncn2)cnc1N [Compound 61]
d: COc1cc(-c2nc(-c3ccc(F)cc3)oc2-c2ccncc2)cnc1N [Example 13]
e: COc1cc(-c2nc(-c3ccc(F)cc3)sc2-c2ccncc2)cnc1N [Example 16]
Hello, I need these entries ordered by IC50, highest reading first. Thanks! Answer with the labels in sequence, matching the requested order. b, e, c, d, a
(b: 0.618 µM, e: 0.0143 µM, c: 0.0049 µM, d: 0.0005 µM, a: 0.0001 µM)

I: CCNc1nccc(-c2[nH]c(C(C)(C)C)nc2-c2cnc(N)c(OC)c2)n1 [Compound 211]
II: Fc1ccc(-c2nc(-c3ccncc3)c(-c3ccnc4[nH]ccc34)[nH]2)cc1 [Compound 150]
Identify the item whose IC50 is the smaller number: I or II Identify your pick by its label. I

1: Nc1ncc(-c2[nH]c(-c3ccccc3)nc2-c2ccncc2)cn1 [Compound 25]
2: COCC(=O)NCCNc1nccc(-c2nc(-c3ccccc3)[nH]c2-c2cnc(N)c(OC)c2)n1 [Compound 68]
3: COc1cc(-c2[nH]c(-c3ccc(O)cc3)nc2-c2ccncc2)cnc1N [Compound 71]
4: COc1cc(Nc2nccc(-c3[nH]c(C(C)(C)C)nc3-c3nc(OC)c(N)nc3C)n2)ccn1 [Compound 253]
Hello, I need these entries ordered by IC50, highest reading first. Thanks! Answer with the labels in sequence, matching the requested order. 1, 4, 3, 2
(1: 0.489 µM, 4: 0.0062 µM, 3: 0.0003 µM, 2: 0.0001 µM)

a: COc1cc(-c2nc(C(C)(C)C)[nH]c2-c2ccnc(NC[C@H](C)NC(=O)C(F)(F)F)n2)cnc1N [Compound 206]
b: O=C1CCc2cc(-c3[nH]c(-c4ccccc4)nc3-c3ccncc3)cnc2N1 [Compound 47]
c: COc1cc(-c2[nH]c(-c3ccc(F)cc3C)nc2-c2ccncc2)cnc1N [Compound 147]
d: COc1nc(-c2nc(-c3ccc(C(F)(F)F)cc3)oc2-c2ccnc(NCC(C)C)n2)cnc1N [Compound 223]
e: CNc1nccc(-c2[nH]c(-c3ccccc3)nc2-c2cnc(N)c(OC)c2)n1 [Compound 56]
Reorder the items by IC50, least to greatest. Answer with the labels in sequence, matching the requested order. a, c, e, d, b
